System: Enterobacter cloacae
Test: MIC against Gram-negative bacteria: Enterobacter cloacae
Assay type: cell-based
Details: Enterobacter cloacae; 96-well plate, 5×10^5 CFU/mL, 37° C., 10 h
Observed property: MIC against E. cloacae (µg/mL)
# output: bare number, implied unit µg/mL

Please list MIC against E. cloacae recorded for the substance PRT1320 (PSNPCSHPDRGGCSENAECVPGSLGTHHCTCHKGWSGDGRVCV; listed as Homo sapiens) 25

Supply MIC against E. cloacae value. Item: PRT1314 (ARNPCTDGHRGGCSEHANCLSTGLNTRRCECHAGYVGDGLQCL; listed as Homo sapiens) 12.5

Please give measured MIC against E. cloacae of the following entry: PRT1278 (DIDECRLNNGGCDHICRNTVGSFECSCKKGYKLLINERNCQ; listed as Homo sapiens) 12.5

Give the reported MIC against E. cloacae for this substance. PRT1209 (ATEDCASNPCQNGGVCNPSPAGGYYCKCSALYIGTHCE; listed as Homo sapiens) 25

Hello, please tell me recorded MIC against E. cloacae for this one: PRT1338 (EMDPCTGLTPGGCSRNAECIKTGTGTHTCVCQQGWTGNGRDCS; listed as Homo sapiens) 50

Supply MIC against E. cloacae value. Item: PRT1276 (LTCNYGNGGCQHTCDDTEQGPRCGCHIKFVLHTDGKTCI; listed as Homo sapiens) 50

Hello, please tell me recorded MIC against E. cloacae for this one: PRT1272 (DVDECVEGTDNCHIDAICQNTPRSYKCICKSGYTGDGKHCK; listed as Homo sapiens) 25

---

Tested on: Enterobacter cloacae
Experiment: MIC against Gram-negative bacteria: Enterobacter cloacae
Format: cell-based
Conditions: E. cloacae; 10 h cultivation at 37° C.; 5×10^5 CFU/mL
Parameter: MIC (μg/mL) E. cloacae. Scope: all listed entries.
Your answer should be a plain number; it is taken to be in µg/mL.

Use these answered entries as a reference point.
PRT837 (RFSLCPGGCQSHGQCQPPGVCACEPGWGGPD; listed as Homo sapiens)	12.5
PRT245 (DIDECASGKVICPYNRRCVNTFGSYYCKCHIGFELQYIS; listed as Homo sapiens)	12.5
PRT750 (DIDECQVAPGEAPTCDHHCHNHLGGFYCSCRAGYVLHRNKRTCS; listed as Homo sapiens)	12.5
PRT866 (CQCHGHAARCAARARPPRCHCRHHTTGPGCESCRPSHRDWPWRPATPRHPHPCLP; listed as Homo sapiens)	12.5
PRT891 (DVDECASTPCKNGAKCLDGPNTYTCVCTEGYTGTHCE; listed as Homo sapiens)	12.5

Give recorded MIC (μg/mL) E. cloacae. PRT215 (YTQCTDGYEWDPVRQQCKDIDECDIVPDACKGGMKCVNHYGGYLCL; listed as Homo sapiens) 25

Recall and state the measured MIC (μg/mL) E. cloacae for PRT889 (DVNECVSNPCQNDATCLDQIGEFQCICMPGYEGVHCE; listed as Homo sapiens) . 12.5

In one line, give reported MIC (μg/mL) E. cloacae of the entry PRT771 (VQDLCSKTTCKNDGVCTVRDGKAECRCQSGEDWWYMGERCE; listed as Homo sapiens) . 50

Entry PRT243 (DVNECGMKPRPCQHRCVNTHGSYKCFCLSGHMLMPDATCV; listed as Homo sapiens) needs its MIC (μg/mL) E. cloacae filled in; supply it. 12.5

Tell me measured MIC (μg/mL) E. cloacae for PRT770 (FRDPCDPNPCQNDGICVNVKGMASCRCISGHAFFYTGERCQ; listed as Homo sapiens) please. 50

Supply MIC (μg/mL) E. cloacae value. Item: PRT156 (DINECDSNPCHHGGSCLDQPNGYNCHCPHGWVGANCE; listed as Homo sapiens) 12.5

Retrieve MIC (μg/mL) E. cloacae measured for PRT217 (DIDECTIPPYCHQRCVNTPGSFYCQCSPGFQLAANNYTCV; listed as Homo sapiens) and print it. 12.5

For the substance PRT147 (DINECEINNGGCSVAPPVECVNTPGSSHCQACPPGYQGDGRVCT; listed as Homo sapiens) , give its measured MIC (μg/mL) E. cloacae value. 12.5

Please look at this substance and report its MIC (μg/mL) E. cloacae: PRT783 (WGPNCSLPCYCKNGASCSPDDGICECAPGFRGTTCQ; listed as Homo sapiens) 25

Retrieve MIC (μg/mL) E. cloacae measured for PRT753 (RKDVCKSTHHGCEHICVNNGNSYICKCSEGFVLAEDGRRCK; listed as Homo sapiens) and print it. 12.5

Identify measured MIC (μg/mL) E. cloacae associated with PRT751 (LCATGDHDCEQVCISSPGSYTCACHEGFTLNSDGKTCN; listed as Homo sapiens) 50
